Method description: chemical genetic growth profiling, strain panel (AID 1159580);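 note: tested at 20 µM; growth read once vehicle control cultures reached saturation at 30 °C; 1 = growth at the plate median or of vehicle wells; lower values mean less growth of the strain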
Condition label: S. cerevisiae deletion strains, growth OD, locus YJL129C, strain trk1, hits give low values
Hit rate of the full screen: of about 5,500 compounds, about 2,000 (36%) were called active. About 18% were inconclusive and are not listed. The list shows a part of the results.
Known normalized growth of a selection of molecules
Reported metric: normalized growth

| Molecule | Val |
| --- | --- |
| NC(=O)CN1CCCC1=O | 0.998 (inactive) |
| O=c1c(O)c(-c2ccc(O)c(O)c2)oc2cc(O)cc(O)c12 | 0.913 (inactive) |
| CC(C)(C)NCC(O)c1cc(O)cc(O)c1 (stereo not drawn) | 0.934 (inactive) |
| NC(=NCCC[C@H](N)C(=O)O)N[N+](=O)[O-] | 1.05 (inactive) |
| C[C@@H]1O[C@@H](OC[C@H]2OC(Oc3c(-c4ccc(O)c(O)c4)oc4cc(O)cc(O)c4c3=O)[C@H](O)[C@@H](O)[C@@H]2O)[C@H](O)[C@H](O)[C@H]1O (stereo partly drawn) | 0.987 (inactive) |
| CCc1cc(C(N)=S)ccn1 | 1.03 (inactive) |
| O=c1c(O)c(-c2ccc(O)cc2O)oc2cc(O)cc(O)c12 | 1.02 (inactive) |
| COc1ccc(-c2oc3cc(O[C@H]4O[C@H](CO)[C@@H](O)[C@H](O)[C@H]4O)c(OC)c(O)c3c(=O)c2OC)cc1O | 0.935 (inactive) |
